# measurement-target: Toll-like receptor 8 (Homo sapiens) (UniProt Q9NR97)
# Sequence (whole entry): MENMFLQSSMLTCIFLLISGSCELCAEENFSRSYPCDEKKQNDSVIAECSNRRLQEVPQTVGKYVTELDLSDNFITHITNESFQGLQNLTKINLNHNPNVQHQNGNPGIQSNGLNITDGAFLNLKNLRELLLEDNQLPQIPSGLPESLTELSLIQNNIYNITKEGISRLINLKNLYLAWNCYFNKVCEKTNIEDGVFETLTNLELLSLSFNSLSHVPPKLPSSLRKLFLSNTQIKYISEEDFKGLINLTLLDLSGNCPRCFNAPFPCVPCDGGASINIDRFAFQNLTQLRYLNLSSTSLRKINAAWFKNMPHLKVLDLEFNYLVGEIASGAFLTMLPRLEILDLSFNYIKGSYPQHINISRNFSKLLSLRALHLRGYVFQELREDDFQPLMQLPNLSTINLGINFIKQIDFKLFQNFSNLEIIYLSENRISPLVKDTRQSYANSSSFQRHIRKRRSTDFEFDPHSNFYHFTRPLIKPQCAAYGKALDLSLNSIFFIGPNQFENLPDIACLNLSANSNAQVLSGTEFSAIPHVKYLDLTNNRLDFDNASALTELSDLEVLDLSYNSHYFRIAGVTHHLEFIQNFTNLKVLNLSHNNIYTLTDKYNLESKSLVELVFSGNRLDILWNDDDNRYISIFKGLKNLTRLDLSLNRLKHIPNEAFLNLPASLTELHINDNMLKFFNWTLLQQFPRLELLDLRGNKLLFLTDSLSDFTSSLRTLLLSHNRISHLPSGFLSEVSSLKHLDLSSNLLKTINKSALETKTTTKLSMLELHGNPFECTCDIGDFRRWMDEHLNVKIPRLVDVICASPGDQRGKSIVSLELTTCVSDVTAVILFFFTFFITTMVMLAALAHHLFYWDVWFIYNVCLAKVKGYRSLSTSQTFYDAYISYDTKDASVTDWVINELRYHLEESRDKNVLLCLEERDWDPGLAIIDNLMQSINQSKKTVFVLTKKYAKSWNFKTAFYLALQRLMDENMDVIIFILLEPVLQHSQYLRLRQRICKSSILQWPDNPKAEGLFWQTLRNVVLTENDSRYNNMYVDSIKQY
# protocol-details: Agonist activity at TLR8 in human PBMC assessed as increase in TNF-alpha production after 16 hrs by immunoassay
The source made the active and inactive calls. The rule behind the calls is not given here.
result-type: Activity

- CCCCCn1c(N)nc2c(C)cccc21: Active
- CCCCNc1cc(-c2ccccc2)nc(N)n1: inactive
- CCCCNc1nc(N)nc(-c2ccccc2)c1CCCCN: inactive
- CCCCNc1nc(N)nc(C)c1I: Active

The measured values listed here are drawn from ChEMBL document CHEMBL4428062.
